- System Tested: hGPR40 (Homo sapiens, UniProt O14842)
- Construct: 3x FLAG
- Sequence (O14842 whole entry): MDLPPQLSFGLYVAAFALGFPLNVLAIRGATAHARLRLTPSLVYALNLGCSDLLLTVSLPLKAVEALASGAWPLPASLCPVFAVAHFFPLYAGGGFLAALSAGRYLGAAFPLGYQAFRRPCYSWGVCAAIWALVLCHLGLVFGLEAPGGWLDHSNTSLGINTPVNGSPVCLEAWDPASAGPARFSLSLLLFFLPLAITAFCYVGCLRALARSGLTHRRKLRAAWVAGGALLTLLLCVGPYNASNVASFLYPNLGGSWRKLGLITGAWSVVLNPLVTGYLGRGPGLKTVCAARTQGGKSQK
- Assay Protocol: FDSS-Based Intracellular Calcium Assay
- Reported Conditions: cells expressing GPR40, intracellular Ca2+ response
// log10(EC50) lookup, one value per entry
Value Type: log10(EC50) (log10 of the value in nM)

Compound: Cc1ccccc1Oc1ccc(N2N=C(S(C)(=O)=O)CC2CC(=O)O)cc1 (racemic)
Value Type: log10(EC50)
Readout Value: 3.22
//
Compound: C[C@@H]1C(C(F)(F)F)=NN(c2ccc(CCCc3cccc(F)c3)cc2)[C@H]1CC(=O)O
Value Type: log10(EC50)
Readout Value: 3.85
//
Compound: COc1ccc(Cl)c(-c2ccc(Cc3ccc(N4N=C(C(F)(F)F)CC4CC(=O)O)cc3)cc2C)c1 (racemic)
Value Type: log10(EC50)
Readout Value: 2.54
//
Compound: COc1ccc(F)c(-c2ccc(Cc3ccc(N4N=C(C(F)(F)F)C(C5CC5)C4CC(=O)O)cc3)c(C)c2)c1 (single isomer, unassigned) [Example 43, Isomer 2]
Value Type: log10(EC50)
Readout Value: 1.95
//
Compound: COc1ccc(F)c(-c2ccc(Oc3ccc(N4N=C(C(F)(F)F)CC4CC(=O)O)cc3)c(Cl)c2)c1 (single isomer, unassigned) [Example 42, Isomer 2]
Value Type: log10(EC50)
Readout Value: 2.46
//
Compound: CCC1C(C(F)(F)F)=NN(c2ccc(Cc3ccc(-c4cc(OC)ccc4F)cc3C)cc2)C1CC(=O)O (single isomer, unassigned) [Example 44, Isomer 1]
Value Type: log10(EC50)
Readout Value: 3.12
